FYI, the data here is from ChEMBL document CHEMBL1201862.

- Protocol Details: Luminescence Cell-Based Dose Confirmation HTS to Identify Activators of 5'UTR Stem-Loop Driven Alpha-Synuclein mRNA Translation in H4 Neuroglioblastoma Cells. [Related pubchem assays: 1829 (Project Summary), 1814 (Primary HTS)]
- Type: functional
Active and inactive are the calls of the source.
Reported EC50 values are given for each entry in this list.

# example entries with known answers
1) O=C(Nc1ccccc1N1CCCC1)c1cc2ccccc2o1 ... 6.1 µM (active)
2) Cc1cc(-c2nnc(S)o2)c(C)n1-c1ccccc1 ... < 0.1 µM (active)
3) COc1cccc(C2C(C#N)=C(N)OC(C(C)(C)C)=C2C#N)c1 (centres undefined) ... > 120 µM (not active)

Query block: Note down EC50 recorded for C(/C=C/c1ccco1)=N/N1CCN(c2ccccc2)CC1
Result block: 2.21 µM (active)

* * *

- Measured Target: RNA-binding protein pos-1 (Caenorhabditis elegans)
- Sequence (G5EF15 whole entry, the tested form may be a part): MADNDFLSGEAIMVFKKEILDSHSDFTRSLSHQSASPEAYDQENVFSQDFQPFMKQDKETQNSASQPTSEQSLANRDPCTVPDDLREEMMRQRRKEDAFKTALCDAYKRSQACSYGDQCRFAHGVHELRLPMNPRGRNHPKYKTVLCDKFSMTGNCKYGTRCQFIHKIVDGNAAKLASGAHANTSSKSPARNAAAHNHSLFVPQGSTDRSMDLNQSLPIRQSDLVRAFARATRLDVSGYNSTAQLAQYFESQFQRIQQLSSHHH
- Protocol Details: inhibitors of POS-1/mex-3 RNA binding, dose response, biochemical, fluorescence polarization (AID 1964);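 also: purified POS-1 fused to maltose binding protein made in E. coli; potency of compounds blocking POS-1 binding to fluorescent RNA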
Calls of active or inactive are those of the source.
Property Label: EC50

1) Cc1ccc2nc3sc(C(=O)N4CCOCC4)c(N)c3cc2c1 ... 46.8 µM (active)
2) COc1ccc(/N=C/c2cc3c(cc2O)OC(N)=C(C#N)C3c2ccccc2)cc1 (centres undefined) ... > 300 µM (not active)
3) COC/C=C/C1=CC2=CC(=O)C(C)(OC(=O)CCC(=O)OC)C(=O)C2=CO1 (centres undefined) ... 22.1 µM (active)
4) COc1ccc(C(=O)/C=C/c2ccc(-c3ccccc3)cc2)cc1CSCC(=O)O ... > 300 µM (not active)
5) N#C/C(=C/c1ccc(CNS(=O)(=O)c2ccccc2)o1)C(=O)NCc1ccccc1 ... > 300 µM (not active)

Query block: Note down EC50 recorded for COc1ccc(S(=O)(=O)C(C#N)c2nc3ccccc3nc2N2CCC(C)CC2)cc1 (centres undefined)
Result block: 6.4 µM (active)

Query block: Note down EC50 recorded for Cc1cccn2c(=O)c3cc(C(=O)NC4CCCCC4)c(=N)n(Cc4ccccc4)c3nc12
Result block: 25.9 µM (active)

Query block: Note down EC50 recorded for Cc1cccc(-n2c(C)cc(C=C3C(=O)c4ccccc4C3=O)c2C)c1
Result block: 46.6 µM (active)

Query block: Note down EC50 recorded for CC1=NN(c2ccc(C(=O)O)c(N)c2)C(=O)C1
Result block: 85.5 µM (active)

* * *

- Measured Target: 26S proteasome non-ATPase regulatory subunit 14 (Homo sapiens, UniProt O00487)
- Sequence (O00487 whole entry): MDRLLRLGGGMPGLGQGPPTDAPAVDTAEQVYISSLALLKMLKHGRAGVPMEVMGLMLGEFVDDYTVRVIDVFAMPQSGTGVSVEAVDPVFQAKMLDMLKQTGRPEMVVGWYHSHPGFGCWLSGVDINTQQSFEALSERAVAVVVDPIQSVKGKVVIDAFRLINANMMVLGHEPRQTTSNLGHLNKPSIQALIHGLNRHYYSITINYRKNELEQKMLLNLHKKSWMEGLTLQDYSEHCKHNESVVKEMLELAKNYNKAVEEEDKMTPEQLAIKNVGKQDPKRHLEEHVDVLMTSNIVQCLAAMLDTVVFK
- Protocol Details: inhibition of proteasome subunit RPN11 – biochemical, fluorescence polarization, uHTS hits, confirmation (AID 602368)
- Type: functional
Calls of active or inactive are those of the source.
Property Label: IC50

1) Cc1ccc(CSCC(=O)N/N=C/c2ccc(OCC(=O)Nc3ccc(C)cc3)cc2)cc1 ... 11.9 µM (active)

Query block: Note down IC50 recorded for CCOC(=O)NC(=O)/C(C#N)=C/c1ccc(N(C)C)cc1
Result block: 14.7 µM (active)

Query block: Note down IC50 recorded for COc1ccccc1NC(=O)CCc1nc2sc3c(c2c(=O)[nH]1)CCCC3
Result block: 33.1 µM (active)

Query block: Note down IC50 recorded for Cc1ccc(NC(=O)C2CCN(S(=O)(=O)c3ccc4c(c3)NC(=O)C(C)S4)CC2)cc1Cl (centres undefined)
Result block: 49.4 µM (active)

* * *

- Measured Target: Aminopeptidase N (Plasmodium falciparum FcB1/Columbia)
- Sequence (O96935 whole entry): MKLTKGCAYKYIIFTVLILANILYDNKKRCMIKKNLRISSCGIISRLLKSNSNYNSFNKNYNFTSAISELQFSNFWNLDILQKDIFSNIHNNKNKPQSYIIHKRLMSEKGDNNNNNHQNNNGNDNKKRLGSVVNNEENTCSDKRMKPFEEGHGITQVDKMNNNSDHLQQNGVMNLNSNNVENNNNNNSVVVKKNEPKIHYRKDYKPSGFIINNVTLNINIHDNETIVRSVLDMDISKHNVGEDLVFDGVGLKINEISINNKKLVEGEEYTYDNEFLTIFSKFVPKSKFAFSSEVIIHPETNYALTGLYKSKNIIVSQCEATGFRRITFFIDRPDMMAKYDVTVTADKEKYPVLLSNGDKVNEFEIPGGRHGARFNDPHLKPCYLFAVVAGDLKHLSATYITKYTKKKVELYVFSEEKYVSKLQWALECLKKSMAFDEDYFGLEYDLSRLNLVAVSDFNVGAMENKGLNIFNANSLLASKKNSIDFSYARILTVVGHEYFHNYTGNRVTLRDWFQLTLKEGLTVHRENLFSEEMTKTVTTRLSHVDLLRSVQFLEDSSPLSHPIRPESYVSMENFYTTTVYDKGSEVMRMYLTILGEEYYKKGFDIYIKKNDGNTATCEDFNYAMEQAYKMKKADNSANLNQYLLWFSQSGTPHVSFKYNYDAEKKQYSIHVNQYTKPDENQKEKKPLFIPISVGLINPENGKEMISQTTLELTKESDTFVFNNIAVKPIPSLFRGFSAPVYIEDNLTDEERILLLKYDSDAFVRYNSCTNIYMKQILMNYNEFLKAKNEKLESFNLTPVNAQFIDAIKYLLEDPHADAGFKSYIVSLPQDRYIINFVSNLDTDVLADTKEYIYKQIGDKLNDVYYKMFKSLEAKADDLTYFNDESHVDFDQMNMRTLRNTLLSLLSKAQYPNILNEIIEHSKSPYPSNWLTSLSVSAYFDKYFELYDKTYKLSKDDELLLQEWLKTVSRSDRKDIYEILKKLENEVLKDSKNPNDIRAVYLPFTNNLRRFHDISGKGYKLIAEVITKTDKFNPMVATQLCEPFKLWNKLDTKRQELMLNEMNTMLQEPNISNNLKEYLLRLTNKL
- Protocol Details: P. falciparum M1AAP inhibitors, biochemical, fluorogenic H-Leu-NHMec substrate, 1536-well (AID 1445)
- Set-up: species or system Plasmodium falciparum 3D7, 3D7
Calls of active or inactive are those of the source.
Property Label: IC50

# example entries with known answers
1. O=C(CSc1nc2ccsc2c(=O)n1NC(=O)c1ccccc1)Nc1nccs1 ... 37.4 µM (active)
2. Cc1cc(-c2ccc(C(=O)O)s2)cnc1N ... 58.9 µM (active)
3. COc1ccc(OC)c(/C=C2\SC(=S)N(C(C(=O)O)c3ccccc3)C2=O)c1 (configuration not stated) ... 12.1 µM (active)
4. NS(=O)(=O)c1ccc(CCNC(=O)CCCn2c(SCC(=O)N3CCCC3)nc3ccsc3c2=O)cc1 ... 97.7 µM (active)
5. CCCCOc1ccc(CC(=O)NO)cc1 [BUFEXAMAC] ... 81.2 µM (active)

Query block: Note down IC50 recorded for NC(=O)c1ccc(Oc2ccc3ccc(=O)oc3c2)c([N+](=O)[O-])c1
Result block: 42.5 µM (active)

Query block: Note down IC50 recorded for O=C(O)COc1ccccc1/C=N/NC(=O)CSc1nnc(SCc2ccc(Cl)cc2)s1
Result block: 16.6 µM (active)

* * *

- Measured Target: Corticotropin-releasing factor receptor 2/Corticotropin-releasing factor-binding protein (Homo sapiens, UniProt P24387+Q13324)
- Sequence (Q13324 whole entry): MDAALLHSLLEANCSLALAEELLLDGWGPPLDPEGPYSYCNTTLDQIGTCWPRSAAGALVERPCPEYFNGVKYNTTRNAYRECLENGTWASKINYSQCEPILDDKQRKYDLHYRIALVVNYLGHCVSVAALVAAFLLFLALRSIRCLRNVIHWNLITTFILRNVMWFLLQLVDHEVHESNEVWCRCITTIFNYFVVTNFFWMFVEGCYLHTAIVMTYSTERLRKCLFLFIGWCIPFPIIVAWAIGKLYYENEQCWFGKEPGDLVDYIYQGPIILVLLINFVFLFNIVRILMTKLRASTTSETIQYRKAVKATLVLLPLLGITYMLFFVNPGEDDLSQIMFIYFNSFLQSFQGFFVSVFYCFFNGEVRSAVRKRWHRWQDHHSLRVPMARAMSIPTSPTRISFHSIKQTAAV
- Sequence (P24387 whole entry): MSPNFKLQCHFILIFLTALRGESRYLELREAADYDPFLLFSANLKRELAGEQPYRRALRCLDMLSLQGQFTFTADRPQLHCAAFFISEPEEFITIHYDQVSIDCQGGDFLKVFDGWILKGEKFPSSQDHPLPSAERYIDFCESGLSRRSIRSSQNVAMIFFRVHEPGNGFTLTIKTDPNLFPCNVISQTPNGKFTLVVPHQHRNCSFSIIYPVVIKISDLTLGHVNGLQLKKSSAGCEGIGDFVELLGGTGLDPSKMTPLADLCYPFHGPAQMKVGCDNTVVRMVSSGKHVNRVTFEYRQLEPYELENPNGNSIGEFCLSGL
- Protocol Details: activators of CRF receptor 2 with binding protein – uHTS hits, confirmation (AID 602473)
- Type: functional
- Setup Conditions: read-out: EC50_Mean
Activity calls are given as the source filed them.
Pick one: t = active, f = inactive

Take a look at these entries with their results.
1) CN(C)C(=O)C1CC(=O)OC12CCCCC2 (stereo unspecified) ... f
2) C[C@]12c3[nH]c4ccccc4c3CCN1C(=O)C(CC(=O)NCC13C[C@H]4C[C@@H](C1)C[C@@H](C3)C4)C[C@@H]2C(=O)N1CCOCC1 (stereo partly specified) ... f

Query block: Test call for this compound, please: CC1C(=O)N(Cc2cn(CCC3OCCCO3)nn2)CCS(=O)(=O)N1Cc1ccc(-c2ccc(Cl)cc2)cc1 (stereo unspecified)
Result block: f

Query block: Test call for this compound, please: Cc1ccc(Cl)cc1N(CC(=O)N1CCOCC1)S(C)(=O)=O
Result block: f

Query block: Test call for this compound, please: CC(=O)NCc1ccc(C(=O)O)cc1
Result block: f

Query block: Test call for this compound, please: COc1ccc(CCNC(=O)C(=O)NCC2OCCN2S(=O)(=O)c2ccc(OC)cc2)cc1 (stereo unspecified)
Result block: f

Query block: Test call for this compound, please: O=C(Nc1nnc(S(=O)(=O)N2CCCCC2)s1)c1ccc(Cl)cc1
Result block: f

* * *

- Measured Target: Protein skinhead-1 (Caenorhabditis elegans)
- Sequence (P34707 whole entry): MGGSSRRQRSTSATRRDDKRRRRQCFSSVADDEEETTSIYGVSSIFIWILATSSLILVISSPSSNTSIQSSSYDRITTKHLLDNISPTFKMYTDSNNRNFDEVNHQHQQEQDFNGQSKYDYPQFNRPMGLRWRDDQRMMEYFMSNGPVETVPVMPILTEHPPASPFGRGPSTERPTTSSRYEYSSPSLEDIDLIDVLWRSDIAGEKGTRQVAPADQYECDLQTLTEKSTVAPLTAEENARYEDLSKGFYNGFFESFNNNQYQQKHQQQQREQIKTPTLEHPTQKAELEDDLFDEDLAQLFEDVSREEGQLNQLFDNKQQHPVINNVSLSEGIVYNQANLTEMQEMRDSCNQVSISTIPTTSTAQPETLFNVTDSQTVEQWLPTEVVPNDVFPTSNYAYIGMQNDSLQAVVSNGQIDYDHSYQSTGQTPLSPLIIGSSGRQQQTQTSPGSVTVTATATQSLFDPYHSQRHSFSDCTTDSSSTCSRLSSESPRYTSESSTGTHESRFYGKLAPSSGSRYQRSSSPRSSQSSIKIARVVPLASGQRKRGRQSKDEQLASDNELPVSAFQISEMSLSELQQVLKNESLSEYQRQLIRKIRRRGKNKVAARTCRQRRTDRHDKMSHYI
- Type: functional
Activity calls are given as the source filed them.
Pick one: true (1) (active), false (0) (inactive)

Take a look at these entries with their results.
1. COCCn1c(CCC(=O)O)nc2c1c(=O)[nH]c(=O)n2CC(C)C ... false (0)
2. CCOC(=O)C1CCN(C(=O)c2ccc3c(c2)S(=O)(=O)c2ccccc2C3=O)CC1 ... false (0)
3. CCCc1cc(C(=O)Nc2ccc(Cl)cn2)cs1 ... false (0)
4. Cc1c(C2=CCN(S(=O)(=O)c3ccc(Cl)cc3)CC2)c2ccccc2n1C ... false (0)
5. O=C1CC(NNC(=O)c2ccc(Br)cc2)C(=O)N1 (stereo unspecified) ... false (0)
6. COc1ccc(C(O)CNc2ccc(C)cc2)cc1 (stereo unspecified) ... false (0)
7. Clc1cc(NCc2cccs2)ccc1N1CCOCC1 ... false (0)
8. COc1cc2[nH]c(=S)n(CCN3CCCCC3C)c(=O)c2cc1OC (stereo unspecified) ... false (0)
9. O=[N+]([O-])c1ccc2nc(N3CCCC3)sc2c1 ... true (1)
10. Nn1c(=S)[nH]c2sc3c(c2c1=O)CCCC3 ... false (0)

Now turn to the next molecule.
Query block: Test call for this molecule, please: COc1ccc(NS(=O)(=O)c2cccc(-c3nnc(-c4ccccc4)o3)c2)cc1
Result block: false (0)
